# credit: ChEMBL document CHEMBL1125556

Test: Antibacterial activity against five Gram-negative bacteria
Format: functional
Settings: read-out: MIC
Would you kindly list MIC for each of these molecules?
Value expressed in µg/mL; do not type the unit.

Any idea what its MIC is? The molecule is NC1CCN(c2c(F)c(F)c3c(=O)c(C(=O)O)cn(C4CC4)c3c2F)C1 (stereo not given) 0.08

Any idea what its MIC is? The molecule is COc1c(N2CCC(N)C2)c(F)c(N)c2c(=O)c(C(=O)O)cn(C3CC3)c12 (stereo not given) 0.11

Any idea what its MIC is? The molecule is CCNCC1CCN(c2c(F)cc3c(=O)c(C(=O)O)cn(C4CC4)c3c2C(F)(F)F)C1 (stereo not given) 0.6

Any idea what its MIC is? The molecule is CCn1cc(C(=O)O)c(=O)c2cc(F)c(N3CCC(N)C3)c(F)c21 (stereo not given) 0.12

Any idea what its MIC is? The molecule is NC1CCN(c2c(F)cc3c(=O)c(C(=O)O)cn(C4CC4)c3c2F)C1 (stereo in doubt; 21) 0.04
